Below, each entry is listed alongside its reported relative binding activity (% of WT).
Target: T1, EGFI-Cr1 Q47A (human, UniProt P16422 24-63)
T1 construct: not shown: the constant region of human immunoglobulin gamma 1 heavy chain (Cr1) fused at the C-terminus
T1 chain: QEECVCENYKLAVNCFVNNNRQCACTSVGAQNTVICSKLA
Experiment: direct ELISA, coated EGFI-Cr1 fusion, 0.1 µg/ml antibody

binder	relative binding activity (% of WT)
murine monoclonal antibody 6D11 (antibody, mouse IgG1, V domains shown, Mouse IgG1, kappa, from hybridoma; also called m338-6D11.8) VH: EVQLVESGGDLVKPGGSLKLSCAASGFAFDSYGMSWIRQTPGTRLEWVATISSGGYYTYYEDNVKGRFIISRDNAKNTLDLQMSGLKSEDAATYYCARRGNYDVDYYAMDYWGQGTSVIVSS VL: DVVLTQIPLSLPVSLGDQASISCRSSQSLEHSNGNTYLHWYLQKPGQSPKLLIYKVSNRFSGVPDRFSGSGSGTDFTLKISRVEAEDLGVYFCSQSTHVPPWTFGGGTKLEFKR	33%

Suppose we examine the binder murine monoclonal antibody 12H8 (antibody, mouse IgG2a, V domains shown, Mouse IgG2a, kappa, from hybridoma; also called m342-12H8.3; m12H8) VH: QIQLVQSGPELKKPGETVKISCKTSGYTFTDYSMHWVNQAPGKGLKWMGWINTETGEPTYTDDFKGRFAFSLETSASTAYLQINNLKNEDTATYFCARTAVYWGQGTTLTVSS VL: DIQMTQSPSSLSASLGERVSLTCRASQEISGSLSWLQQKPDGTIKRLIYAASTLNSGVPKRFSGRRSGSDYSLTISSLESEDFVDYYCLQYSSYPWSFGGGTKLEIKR ; what relative binding activity (% of WT) value has been reported?
93%

Query murine monoclonal antibody 1F10 (antibody, mouse IgG1, V domains shown, Mouse IgG1, lambda 1, from hybridoma; also called m338-1F10.3) VH: EVKLLESGGGLVQPGGSLKLSCAASGFDFSRYWMSWVRQAPGKGLEWIGEINPDSSTMNYTPSLKDKFIISRDNAKNTLYLQMSKVRSEDTALYYCARGAYAMDYWGQGTSVTVSS VL: QAVVTQESALTTSPGETVTLTCRSSTGAVTTSNNANWVQEKPDHLFTGLIGATNNRAPGVPARFSGSLIGDKAALTITGAQTEDEAIYFCALWYINHWVFGGGTKLTVLG next
92%
